System: Staphylococcus epidermidis
Assay Details: Antibacterial activity against methicillin-resistant Staphylococcus epidermidis isolate cpu2736 after 18 to 20 hrs by agar dilution method
Type: functional
// log10 MIC lookup, one value per entry
Measure Name: log10 MIC (log10 of the value in mg/L)

Smiles Input	Measure Name	Observed Measurement
C=C[C@]1(C)C[C@@H](OC(=O)CSCc2csc(NC(=O)CN(CCC)CCC)n2)[C@]2(C)[C@H](C)CC[C@]3(CCC(=O)[C@H]32)[C@@H](C)[C@@H]1O	log10 MIC	0.30
CC1(C)S[C@@H]2[C@H](NC(=O)[C@H](N)c3ccc(O)cc3)C(=O)N2[C@H]1C(=O)O	log10 MIC	-0.90
C=C[C@]1(C)C[C@@H](OC(=O)CSCc2csc(N)n2)[C@]2(C)[C@H](C)CC[C@]3(CCC(=O)[C@H]32)[C@@H](C)[C@@H]1O	log10 MIC	-0.90
C=C[C@]1(C)C[C@@H](OC(=O)CSCc2csc(NC(=O)CN3CCCC3)n2)[C@]2(C)[C@H](C)CC[C@]3(CCC(=O)[C@H]32)[C@@H](C)[C@@H]1O	log10 MIC	-0.30
C=C[C@]1(C)C[C@@H](OC(=O)CSCc2csc(NC(=O)CN(CC)CC)n2)[C@]2(C)[C@H](C)CC[C@]3(CCC(=O)[C@H]32)[C@@H](C)[C@@H]1O	log10 MIC	-0.60
C=C[C@]1(C)C[C@@H](OC(=O)CSCc2csc(NC(=O)CNCC(=O)OC)n2)[C@]2(C)[C@H](C)CC[C@]3(CCC(=O)[C@H]32)[C@@H](C)[C@@H]1O	log10 MIC	-0.30
C=C[C@]1(C)C[C@@H](OC(=O)CSCCN(CC)CC)[C@]2(C)[C@H](C)CC[C@]3(CCC(=O)[C@H]32)[C@@H](C)[C@@H]1O	log10 MIC	-1.20
C=C[C@]1(C)C[C@@H](OC(=O)CSCc2csc(NC(=O)CNC3CCCCC3)n2)[C@]2(C)[C@H](C)CC[C@]3(CCC(=O)[C@H]32)[C@@H](C)[C@@H]1O	log10 MIC	0.00
C=C[C@]1(C)C[C@@H](OC(=O)CSCc2csc(NC(=O)CN(CCCC)CCCC)n2)[C@]2(C)[C@H](C)CC[C@]3(CCC(=O)[C@H]32)[C@@H](C)[C@@H]1O	log10 MIC	1.20
C=C[C@]1(C)C[C@@H](OC(=O)CSCc2csc(NC(=O)CN3CCCCC3)n2)[C@]2(C)[C@H](C)CC[C@]3(CCC(=O)[C@H]32)[C@@H](C)[C@@H]1O	log10 MIC	-1.20
